Tested on: MDA-MB-435
test-protocol: NCI tumour cell line growth inhibition, 48 h
Calls of active or inactive are those of the source. Rule as the data show it: active = GI50 up to about 1.1 µM and inactive = higher.
Entries and their GI50

In [3]: df
Out[3]:
                                   molecule      reported_result
0                 CC(C)OC(=O)NNc1cccc(Cl)c1  > 100 µM (inactive)
1  O=C(CC(C(=O)c1cccs1)c1ccsc1)c1ccco1 (stereo not drawn)   20.3 µM (inactive)
2              CC(C)(C)NC(=S)N/N=C/c1ccccn1   3.61 µM (inactive)
3  CN1C(C(=O)Nc2ccccn2)=C(O)c2ccccc2S1(=O)=O [PIROXICAM]  > 100 µM (inactive)
4  COC(=O)C1(Cc2ccc3c(c2)CCC3)Cc2cc3c(cc2C1)CCC3     39 µM (inactive)
5  N#C/N=C(/NCc1ccccc1)N(Cc1ccccc1)Cc1ccccc1   49.1 µM (inactive)
6  O=[N+]([O-])/C(C(Cl)=C(Cl)Cl)=C(/Nc1ccccc1)Sc1ccccc1   18.1 µM (inactive)
7          O=c1cnn(CCOCP(=O)(O)O)c(=O)[nH]1  > 100 µM (inactive)

What measured GI50 is associated with C[C@]12CC/C(=N\OCCN3CCCCC3)C=C1CCC1C2CC[C@@]2(C)C1CC[C@]2(C)O (stereo partly drawn) on MDA-MB-435?
2.3 µM (inactive)

Would you kindly repeat that for Cc1c(C2=C(Br)C(=O)N(C)C2=O)c(=O)n(C)c(=O)n1C ?
24.9 µM (inactive)

Would you kindly repeat that for CO[C@H]1O[C@@H]2CO[C@@H](c3ccccc3)O[C@H]2C[C@]12CCC/C=C\CO2 ?
12.2 µM (inactive)

Would you kindly repeat that for O=C(O)C/C(=C\c1ccccc1)C(=O)O ?
> 100 µM (inactive)

Would you kindly repeat that for CC(=O)n1nc(-c2ccc3ccccc3c2)nc1C ?
33.7 µM (inactive)

---

Test system: T47D
test-protocol: NCI tumour cell line growth inhibition, 48 h
The source made the active and inactive calls. Cut-off read from the data, not from the text of the source: active = GI50 up to about 1.1 µM and inactive = higher.
recorded-metric: GI50

                                   molecule     reported_result
0  Cc1ccc(-n2cc(-c3ccc(Cl)cc3)c3c(NN)ncnc32)cc1  2.55 µM (inactive)
1  C#C[C@]1(O)CC[C@H]2[C@@H]3CCC4=C/C(=N\OCCN5CCCC5)CC[C@]4(C)[C@H]3CC[C@@]21C  16.1 µM (inactive)
2  O=C(c1ccc(Cl)cc1)N(C(=O)N1CCC(c2ccccc2)CC1)c1ccccc1  11.1 µM (inactive)

What measured GI50 is associated with C=C(C)c1nc(C#N)c(N)o1 on T47D?
> 100 µM (inactive)

Would you kindly repeat that for COC1OC(Cn2c(C)nc(Br)c2Br)C(O)C(O)C1O (configuration not stated) ?
> 100 µM (inactive)

Would you kindly repeat that for CCN(CC)c1c(N(CC)CC)c(=O)c1=O ?
3.18 µM (inactive)

Would you kindly repeat that for N=C(N)N1CCC(N2CCOCC2)CC1 ?
> 100 µM (inactive)

---

System: BT-549
test-protocol: NCI tumour cell line growth inhibition, 48 h
The source made the active and inactive calls. No stated cut-off is given here; in the data, active = GI50 up to about 1.1 µM and inactive = higher.
# output must be one of active, inactive

I would be grateful if you could indicate the recorded call for CCN(CC)C(=S)SC(C(=O)Nc1nnc(-c2ccc(Cl)cc2)o1)c1ccccc1 (stereo not given) .
inactive

Would you kindly repeat that for c1ccc(-c2nc(-c3ccccc3SSc3ccccc3-c3nc(-c4ccccc4)nn3-c3ccccc3)n(-c3ccccc3)n2)cc1 ?
inactive

Would you kindly repeat that for C1#Cc2ccccc2OCCOc2ccccc2C#Cc2ccccc2OCCOc2ccccc21 ?
inactive

Would you kindly repeat that for CN(C)c1ccc(/C=C/C=c2/c3ccccc3n3c2cc(-c2ccccc2)[n+]3C)cc1 ?
active

Would you kindly repeat that for C[C@]12CC/C(=N\OCCN3CCCCC3)C=C1CCC1C2CC[C@@]2(C)C1CC[C@]2(C)O (stereo not given in full) ?
inactive
